B1: Twister Ribozyme (parent)
chain: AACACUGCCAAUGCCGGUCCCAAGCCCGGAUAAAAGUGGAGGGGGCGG

# Variants of: B1
# test-protocol: self-cleavage, relative activity (ratio to wild type); higher = more cleavage; co-transcriptional
Please note: true (1) applies when self-cleavage is 0.1 or greater, and false (0) applies otherwise.

Req: self-cleavage >= 0.1 for AACACUGCCAAUGCCGGUCCCACGCCCGGAUAAAUGUGGAGGGGGCGG [A23C A35U] ?
Resp: true (1)

Req: Ok, now AACACCGACAAUGCCGGUCCCAAGCCCGGAUAAAAGUGGAGGGGGCGG [U6C C8A]
Resp: false (0)

Req: Ok, now AAAACUGCCAAUGCCGGUCCCAAGCCCGGAUAAAAGUGGAGGGGGAGG [C3A C46A]
Resp: true (1)

Req: Ok, now AACACUGCCAAUGCCGGUCCCAUGCCCGGAUGAAAGUGGAGGGGGCGG [A23U A32G]
Resp: true (1)

Req: Ok, now AACACUGCCAAUGCCGGUCCCAAACUCGGAUAAAAGUGGAGGGGGCGG [G24A C26U]
Resp: false (0)

Req: Ok, now AACACUGCCAAUGCCGGUCCCAAGCCCGGAUAAAAAUGGAGUGGGCGG [G36A G42U]
Resp: true (1)
